Origin of measurements: patent US20110172244A1

Target: human GPR119 (Homo sapiens)
Construct: expressed in transfected cells
Sequence (Q8TDV5 whole entry): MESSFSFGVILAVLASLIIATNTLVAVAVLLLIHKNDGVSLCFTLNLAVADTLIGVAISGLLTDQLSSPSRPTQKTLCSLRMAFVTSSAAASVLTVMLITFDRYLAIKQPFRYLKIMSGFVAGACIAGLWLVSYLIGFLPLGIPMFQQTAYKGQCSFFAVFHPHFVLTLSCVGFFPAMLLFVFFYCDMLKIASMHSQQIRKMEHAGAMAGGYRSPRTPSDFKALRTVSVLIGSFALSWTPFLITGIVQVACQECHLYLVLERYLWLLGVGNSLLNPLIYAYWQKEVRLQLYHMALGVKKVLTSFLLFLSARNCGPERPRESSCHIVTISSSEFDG
Experiment: Cyclic AMP assay in stable cell line (Flp-In-CHO-hGPR119, HTRF)
Assay type: cell-based
Settings: Flp-In-CHO-hGPR119 cells, cAMP HTRF, 1 mM IBMX, 30 minutes at 37° C.; read-out: CHO-GPR119-HTRF (3158) EC50
observable: EC50 (µM)
# value in µM; strip the unit string

molecule: O=C(c1[nH]c2ccccc2c1S(=O)(=O)c1ccc(Cl)cc1)N1CCC(Oc2ccc(C(F)(F)F)cc2)CC1 [Example A4]
EC50, µM: 0.01
--
molecule: O=C(c1[nH]c2ccccc2c1S(=O)(=O)C1CCCCC1)N1CCC(Cc2ccccc2)CC1 [Example B4]
EC50, µM: 0.149
--
molecule: O=C(c1[nH]c2ccccc2c1S(=O)(=O)CCc1ccccc1)N1CCC(Cc2ccccc2)CC1 [Example B11]
EC50, µM: 0.042
--
molecule: Cn1c(C(=O)N2CCC(Cc3ccccc3)CC2)c(S(=O)(=O)c2ccc(Cl)cc2)c2ccccc21 [Example B5]
EC50, µM: 0.169

[Q] Given the molecule CN(Cc1ccccc1)C1CCN(C(=O)c2[nH]c3ccccc3c2S(=O)(=O)c2ccc(Cl)cc2)CC1 [Example A19] , what is its reported EC50?
[A] 0.533
